EXPERIMENTAL_ENDPOINT: melting point

• O=C(CCc1ccc(S(=O)(=O)N(C(=O)c2c3ccccc3nc3ccccc23)c2ccc3c(c2)OCCO3)cc1)ON1C(=O)CCC1=O = 140 °C
• O=[N+]([O-])C=C(NCCCCc1nc[nH]c1Br)NCCCCc1nc[nH]c1Br = 198 to 200 °C
• C=C1CCN([C@H](C)[C@](O)(Cn2cncn2)c2ccc(F)cc2F)CC1 = 86 to 87 °C
• NCCCCC(OP(=O)(O)CCCCc1ccc(F)cc1)C(=O)N1CCCC1C(=O)O (stereo not given) = 178 to 185 °C
• Cc1nn(C)cc1C(=O)NC(C#N)c1ccco1 (stereo not given) = 122 °C

These entries and their values trace back to a melting point compilation (Tetko et al.; mined from patent text by program, amines drawn as free bases though some values may be those of a salt).
